Record form. Attribute: λmax (nm). Fill in for each entry.
# assay_protocol: Photostationary state (PSS) and lambda max under simulated sunlight (solar simulator)
# Assay type: physicochemical
# applied_conditions: peak in the visible range, ring-closed (dark) state
One number for each entry, in nm.

Here is how some molecules turned out for λmax (nm).
cpd_smiles: CC(C)(C)c1ccc(-c2oc3ccccc3c2C2=C(c3cc(-c4ccc(C(C)(C)C)s4)sc3-c3ccc(C(C)(C)C)s3)C(F)(F)C(F)(F)C2(F)F)cc1
λmax (nm): 573
//
cpd_smiles: COc1cc2oc(-c3ccc(C(C)(C)C)cc3)c(C3=C(c4cc(-c5ccc(C(C)(C)C)s5)sc4-c4ccc(C(C)(C)C)s4)C(F)(F)C(F)(F)C3(F)F)c2cc1OC
λmax (nm): 591
//
cpd_smiles: COCCCOc1cc2oc(-c3ccc(C(C)(C)C)cc3)c(C3=C(c4cc(-c5cc(C(C)(C)C)cs5)sc4-c4cc(C(C)(C)C)cs4)C(F)(F)C(F)(F)C3(F)F)c2cc1OCCCOC
λmax (nm): 594
//
cpd_smiles: COc1ccc2c(C3=C(c4cc(-c5ccc(C(C)(C)C)s5)sc4-c4ccc(C(C)(C)C)s4)C(F)(F)C(F)(F)C3(F)F)c(-c3ccc(C(C)(C)C)cc3)oc2c1
λmax (nm): 575

Could you report λmax (nm) for every entry in the following list?
1. CC(=O)Oc1cc2oc(-c3ccc(C(C)(C)C)cc3)c(C3=C(c4cc(-c5cc(C(C)(C)C)cs5)sc4-c4cc(C(C)(C)C)cs4)C(F)(F)C(F)(F)C3(F)F)c2cc1OC(C)=O
2. CC(C)(C)c1ccc(-c2oc3cc(OCCN4CCOC4=O)c(OCCN4CCOC4=O)cc3c2C2=C(c3cc(-c4cc5c(s4)C(C)(C)CCC5(C)C)sc3-c3cc4c(s3)C(C)(C)CCC4(C)C)C(F)(F)C(F)(F)C2(F)F)cc1
3. COc1cc2oc(-c3ccc(C(C)(C)C)cc3)c(C3=C(c4cc(-c5cc6c(s5)C(C)(C)CC6(C)C)sc4-c4cc5c(s4)C(C)(C)CC5(C)C)C(F)(F)C(F)(F)C3(F)F)c2cc1OC
4. COc1ccc2oc(-c3ccc(C(C)(C)C)cc3)c(C3=C(c4cc(-c5ccc(C(C)(C)C)s5)sc4-c4ccc(C(C)(C)C)s4)C(F)(F)C(F)(F)C3(F)F)c2c1
5. COCCCOc1cc2oc(-c3ccc(C(C)(C)C)cc3)c(C3=C(c4cc(-c5cc6c(s5)C(C)(C)CCC6(C)C)sc4-c4cc5c(s4)C(C)(C)CCC5(C)C)C(F)(F)C(F)(F)C3(F)F)c2cc1OCCCOC
6. COc1cc2oc(-c3ccc(C(C)(C)C)cc3)c(C3=C(c4cc(-c5cc6c(s5)C(C)(C)CCCC6(C)C)sc4-c4cc5c(s4)C(C)(C)CCCC5(C)C)C(F)(F)C(F)(F)C3(F)F)c2cc1OC

Result:
[578, 593, 599, 583, 600, 598]
